Recorded values, source patent US20230355720A1.

Target: T1, human GIP receptor (human, UniProt P48546 22-466)
T1 sequence (looked up): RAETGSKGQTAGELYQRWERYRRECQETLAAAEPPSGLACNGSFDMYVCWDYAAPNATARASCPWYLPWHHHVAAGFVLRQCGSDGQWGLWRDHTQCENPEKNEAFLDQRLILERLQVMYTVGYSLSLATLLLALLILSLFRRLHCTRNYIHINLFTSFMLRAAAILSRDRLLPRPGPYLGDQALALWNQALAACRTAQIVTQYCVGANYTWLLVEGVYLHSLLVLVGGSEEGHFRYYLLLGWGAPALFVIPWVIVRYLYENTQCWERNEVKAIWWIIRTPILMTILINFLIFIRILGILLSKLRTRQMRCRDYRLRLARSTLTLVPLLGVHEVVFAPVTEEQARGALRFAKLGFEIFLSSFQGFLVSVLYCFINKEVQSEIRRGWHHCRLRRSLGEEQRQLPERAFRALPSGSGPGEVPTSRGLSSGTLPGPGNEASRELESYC
Experiment: cell-based or functional assay
Bridge positions count the residues as written; N and C are the ends. Square brackets hold non-standard residues; d marks the D form. Ends that are not written are not given here. * marks the point of attachment. Acetyl(2-(4-imidazolyl)) = O=C(Cc1c[nH]cn1)*; Aib = CC(C)(N)C(=O)O
Kindly supply the reported In vitro activity (%) compared with native peptide, vs GIP values for the records listed here.
Value expressed in %; do not type the unit.

Record H[Aib]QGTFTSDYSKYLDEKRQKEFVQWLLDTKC (bridge 16-20; also: ring between positions 16 and 20, type not given here) [triple agonist of SEQ ID NO: 78] , field In vitro activity (%) compared with native peptide, vs GIP: 0.12

Record [Acetyl(2-(4-imidazolyl))][Aib]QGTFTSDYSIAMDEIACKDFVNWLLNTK (bridge 16-20; not fully specified) [triple agonist of SEQ ID NO: 61] , field In vitro activity (%) compared with native peptide, vs GIP: 2.8

Record H[Aib]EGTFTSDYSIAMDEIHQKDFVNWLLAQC (bridge 16-20; not fully specified) [triple agonist of SEQ ID NO: 53] , field In vitro activity (%) compared with native peptide, vs GIP: 1.3

Record Y[Aib]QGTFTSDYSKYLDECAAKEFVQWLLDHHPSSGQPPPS (bridge 16-20) [triple agonist of SEQ ID NO: 64] , field In vitro activity (%) compared with native peptide, vs GIP: 92.9

Record Y[Aib]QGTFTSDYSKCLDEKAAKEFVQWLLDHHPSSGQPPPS (bridge 16-20) [triple agonist of SEQ ID NO: 68] , field In vitro activity (%) compared with native peptide, vs GIP: 107
